IC50 values for USP14 (Homo sapiens (Human), UniProt P54578), compiled from several publications.

See these solved cases before continuing.
Cc1cc(C(=O)CN2CCCC2)c(C)n1-c1ccc(Br)c(Cl)c1	500 to 5000 nM
Cc1c(C(=O)CN2CCCCC2)c2ccc(OCC(N)=O)cc2n1-c1ccc(Cl)cc1	< 500 nM
Cc1c(C(=O)CN2CC=CCC2)c2ncc(Br)cc2n1-c1ccc(C#N)cc1	500 to 5000 nM
Cc1sc(-c2ccc(Cl)cc2)cc1C(=O)CN1CCC(F)CC1	> 10000 nM
Cc1c(C(=O)CN2CCCCC2)c2nc(-n3nccn3)ccc2n1-c1ccc(C#N)cc1	< 500 nM

## Input For the compound `C#CCCCNC(=O)CCc1cnc2c(C(=O)CN3CCC(O)CC3)c(C)n(-c3ccc(C#N)cc3)c2c1` , report IC50.
## Output < 500 nM

## Input Note down IC50 recorded for `Cc1c(C(=O)CN2CCC2)c2ncc(Br)cc2n1-c1ccc(C#N)cc1`
## Output > 5000 nM

## Input Supply reported IC50 belonging to this compound: `Cc1cc(C(=O)CN2CCCCC2)c(C)n1[C@H]1CC[C@H](C(N)=O)CC1`
## Output > 5000 nM

## Input Identify measured IC50 associated with `Cc1c(C(=O)CN2CCCCC2)c2ncc(CN3CCCC3)cc2n1-c1ccc(C#N)cc1`
## Output < 500 nM

## Input Please report the measured IC50 for `CCOC(=O)CCc1cc2c(nc1C)c(C(=O)CN1CCCCC1)c(C)n2-c1ccc(C#N)cc1`
## Output < 500 nM

## Input Assign IC50 to the following record: `Cc1c(C(=O)CN2CC[C@@H](O)[C@@H](O)C2)c2ncc(Br)cc2n1-c1ccc(C#N)cc1`
## Output < 500 nM

## Input In one line, give reported IC50 of the entry `Cc1cc(C(=O)CN2CCCCC2)c(C)n1-c1cc(Cl)cc(Cl)c1` .
## Output > 5000 nM

## Input Recall and state the measured IC50 for `Cc1c(C(=O)CN2CCCCC2(C)C)c2ncc(Br)cc2n1-c1ccc(C#N)cc1` .
## Output < 500 nM

## Input Note IC50 for the compound shown: `Cc1cc(C(=O)CN2CCC(F)CC2)c(C)n1-c1ccc(F)cc1`
## Output 500 to 5000 nM

## Input Tell us which IC50 value is on record for `Cc1ccc2c(c1)c(C(=O)CN1CCCCC1)c(C)n2-c1ccc(Cl)cc1`
## Output < 500 nM

## Input Consider the compound `Cc1cc(C(=O)CN2CCCC2)n(C)c1-c1ccc(Cl)cc1` and give its recorded IC50.
## Output < 500 nM

## Input Give a short answer stating reported IC50 for `Cc1c(C(=O)CN2CCCCC2)ccn1-c1ccc(Cl)cc1` .
## Output < 500 nM
